We begin with a simple list: items and their reported pIC50.
# study_system: human HSV DNA polymerase UL30 (Human herpesvirus 1 (strain 17) (HHV-1) (Human herpes simplex virus 1))
# assay_comment: HSV polymerase biochemical assay (molecular beacon-based)
On this scale, pIC50 is minus log10 of a concentration expressed in M (mol/L).

Consider the worked cases shown below.
compound | result
COC1(S(=O)(=O)C2(CN3CCn4c(ccc(C(=O)NCc5ccc(C#N)c(F)c5)c4=O)C3=O)CC2)CC1 | 7.18
N#Cc1ccc(CNC(=O)c2ccc3n(c2=O)CCN(CC2(S(=O)(=O)[C@@H]4CC4(F)F)CC2)C3=O)cc1Cl (single isomer, unassigned) | 6.79
O=C(NCc1ccc(Cl)cc1)c1ccc2n(c1=O)CCN(CC1(S(=O)(=O)C3CNC3)CC1)C2=O | 6.83
CS(=O)(=O)C1(CN2CCn3c(ccc(C(=O)NCc4ccc(C#N)cc4)c3=O)C2=O)CC1 | 6.90
O=C(NCc1ccc(F)c(F)c1)c1ccc2n(c1=O)CCN(CC1(S(=O)(=O)C3CC3)CC1)C2=O | 6.83
N#Cc1ccc(CNC(=O)c2ccc3n(c2=O)CCN(CC2(S(=O)(=O)N4CC(F)(F)C4)CC2)C3=O)cc1 | 6.99

Using known records, supply pIC50 for CC1(CS(=O)(=O)C2(CN3CCn4c(ccc(C(=O)NCc5ccc(C#N)cc5)c4=O)C3=O)CC2)COC1
6.97

Give the value of pIC50 reported for the following: N#Cc1ccc(CNC(=O)c2ccc3n(c2=O)CCN(CC2(S(=O)(=O)CC4CC4)CC2)C3=O)cc1F
7.14

Provide only the value of recorded pIC50 for CN1CCC(S(=O)(=O)C2(CN3CCn4c(ccc(C(=O)NCc5ccc(C#N)cc5)c4=O)C3=O)CC2)C1 (stereo not drawn)
6.32

* * *

# study_system: human CMV DNA polymerase UL54 (Human cytomegalovirus (strain AD169) (HHV-5) (Human herpesvirus 5), UniProt P08546)
# assay_comment: CMV polymerase biochemical assay (molecular beacon-based)
# reported IC50; entries follow
Put your answer as a value accompanied by its unit after it.

Given COCC(C)(C)S(=O)(=O)C1(CN2CCn3c(ccc(C(=O)NCc4ccc(C#N)cc4)c3=O)C2=O)CC1 [Example 187] , respond with its IC50.
0.4 nM

* * *

# study_system: human HSV DNA polymerase UL30 (Human herpesvirus 1 (strain 17) (HHV-1) (Human herpes simplex virus 1), UniProt P04293)
# assay_comment: HSV polymerase biochemical assay (molecular beacon-based)
value_kind: IC50 (nM)
Number in nM, nothing else.

compound | display_unit | result
N#Cc1ccc(CNC(=O)c2ccc3n(c2=O)CCN(CC2(S(=O)(=O)C4(O)CC4)CC2)C3=O)cc1 | nM | 205
CC1(CS(=O)(=O)C2(CN3CCn4c(ccc(C(=O)NCc5ccc(Cl)cc5)c4=O)C3=O)CC2)COC1 | nM | 109
CC1CN(CCN(C)S(C)(=O)=O)C(=O)c2ccc(C(=O)NCc3ccc(Cl)cc3)c(=O)n21 (stereo not drawn) | nM | 2250
O=C(NCc1ccc(Cl)cc1)c1ccc2n(c1=O)CCN(CC1(S(=O)(=O)C3CCC3)CC1)C2=O | nM | 30
Cc1cc(C(=O)NCc2ccc(F)cc2)c(=O)n2c1C(=O)N(CC1(S(C)(=O)=O)CC1)CC2 | nM | 287

Next up:
Read the entry O=C(NCc1ccc(Cl)cc1)c1ccc2n(c1=O)CCN(CC1(N3CCCS3(=O)=O)CC1)C2=O and write its reported IC50.
28.1
